Recorded measurements of solubility, one per entry
Experiment: Solubility of the furylphosphine in water
Details: 23 °C
Report as a plain number; the unit mg/mL is understood.

{"columns": ["Smiles data", "Value measured"],
 "data": [
  ["O=P(O)(O)c1ccc(P(c2ccccc2)c2ccc(P(=O)(O)O)o2)o1", 1140]
]}

The compound `O=C([O-])c1ccc(P(c2ccccc2)c2ccccc2)o1.[Na+]` showed solubility equal to 250

----------
Assay: Solubility of the furylphosphine in water
Details: 21 °C
Measure: solubility (mg/mL)
The answer is to be given in mg/mL; state only the numeric part.

solubility recorded for this molecule, `O=S([O-])c1ccc(P(c2ccccc2)c2ccccc2)o1.[Na+]` , is 205
